From: patent US20260297060A1

- Method: Example 9 pharmacokinetics assay for the PK and PD study Part I, II and III (plasma, tumor, liver)
- Assay type: in vivo, BALB/c nude mice
- Measurement Context: mouse, plasma, po; 10 mg/kg, p.o., single dose; 24 h; ± SEM; read-out: Mean Concentration in Plasma
// reported concentration at 24 h for each item listed
Write the value in ng/mL as a bare number.

Use these answered entries as a reference point.
CO[C@H]1CCN(S(=O)(=O)Nc2ccc(F)c(Oc3ccc4ncn([C@H]5COC6(CCN(C7CC8(C7)CN(c7cc9c(cc7F)c(N7CCC(=O)NC7=O)nn9C)C8)CC6)C5)c(=O)c4c3)c2C#N)C1 :: 161
Cn1nc(N2CCC(=O)NC2=O)c2cc(F)c(N3CC4(CC(N5CCC6(CC5)C[C@@H](n5cnc7ccc(Oc8c(F)ccc(NS(=O)(=O)N9CC[C@@H](F)C9)c8C#N)cc7c5=O)CO6)C4)C3)cc21 :: 23.4
CO[C@@H]1CCN(S(=O)(=O)Nc2ccc(F)c(Oc3ccc4ncn([C@H]5COC6(CCN(C7CC8(C7)CN(c7cc9c(cc7F)c(N7CCC(=O)NC7=O)nn9C)C8)CC6)C5)c(=O)c4c3)c2C#N)C1 :: 143
CCN(C)S(=O)(=O)Nc1ccc(F)c(Oc2ccc3ncc(OC4CC5(CCN(C6CCC(c7cc8c(cc7F)c(N7CCC(=O)NC7=O)nn8C)CC6)CC5)C4)nc3c2)c1C#N (single isomer, unassigned) :: 6.2

Qu. Record request: concentration at 24 h value, item CCN(C)S(=O)(=O)Nc1ccc(F)c(Oc2ccc3ncn(C4CC5(CCN(C6CC7(CCN(c8cc9c(cc8F)c(N8CCC(=O)NC8=O)nn9C)CC7)C6)CC5)C4)c(=O)c3c2)c1C#N (centres unmarked)
Ans. 573
